I'd be grateful if you could share measured z-score for these entries.
# PROCEDURE DETAILS: MELAS cybrid and Rieske KO viability enhancers – cell-based, MELAS cybrids, Rieske KO mouse fibroblasts, CellTiter-Glo, primary screen (AID 1508586);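 note: test concentration not given here; z relative to plate mean and SD of compound and empty wells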
# MEASUREMENT CONDITIONS: MELAS cybrid survival, low glucose, CellTiter-Glo 48 h; stronger effect = higher value
Reply: number alone, nothing else.

Q: Fill in the blank: the reported z-score of COC(=O)Nc1nc2ccc(Sc3ccc(NC(=O)Nc4cc(C(F)(F)F)ccc4F)cc3)cc2[nH]1 is ____.
Ans: -0.309

Q: Would you kindly repeat that for CC(C)NS(=O)(=O)c1cc(NCc2cnn(C)c2)cc(C(=O)NCc2cn3ccccc3n2)c1 ?
Ans: -0.615

Q: Would you kindly repeat that for COc1cc(N2CCN(Cc3ccccc3F)C(=O)C2)ncn1 ?
Ans: -0.24

Q: Would you kindly repeat that for CN1[C@@H]2CC[C@@H]1CC(OC(=O)C(CO)c1ccccc1)C2 (stereo not given in full) ?
Ans: 0.0633

Q: Would you kindly repeat that for CCCCNC(=O)[C@@H]1C[C@H](CN2CCOCC2)CN(Cc2ccc(OC)c(OC)c2)C1 ?
Ans: -0.184

---

# PROCEDURE DETAILS: galactose survival enhancers in mitochondrial complex I cybrids – cell-based, galactose medium, ATP luminescence, primary screen (AID 1645843);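 note: positive z means more ATP and so rescue of galactose-driven cybrid death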
# MEASUREMENT CONDITIONS: complex I mutant cybrid cells, 72 h, stronger effect = higher value
I'd be grateful if you could share measured z-score for these entries.
Reply: number alone, nothing else.

Q: Fill in the blank: the reported z-score of O=C1C2CCCCC2C(=O)N1CCCCN1CCN(c2nsc3ccccc23)CC1 (centres undefined) is ____.
Ans: -1.79

Q: Would you kindly repeat that for COc1ccc(N2CCN(c3ncnc4sccc34)C(C)C2=O)cc1 (centres undefined) ?
Ans: -0.505

Q: Would you kindly repeat that for O=C(O)c1ccc2ccccc2n1 ?
Ans: 0.485

Q: Would you kindly repeat that for CCCOC(=O)c1c(-c2ccccc2)nc(CC)c(C(=O)SCC)c1CCC ?
Ans: -1.19

Q: Would you kindly repeat that for CNCCNS(=O)(=O)c1cccc2cnccc12 ?
Ans: -0.89

Q: Would you kindly repeat that for Cc1nc(-c2ccnc(N)n2)cn1Cc1c(Cl)cccc1Cl ?
Ans: -0.225

Q: Would you kindly repeat that for CCCC(NC(=O)c1ccc(C#N)cc1)c1ccccc1 (centres undefined) ?
Ans: -0.32

Q: Would you kindly repeat that for CCCc1cc(C(=O)N2CCCC(Cn3cc(CC(C)C)nn3)C2)n[nH]1 (centres undefined) ?
Ans: 1.21

Q: Would you kindly repeat that for COc1ccc(C(=O)/C(Br)=C\C(=O)O)cc1 ?
Ans: -0.925

Q: Would you kindly repeat that for NS(=O)(=O)c1ccc(C(=O)NCc2ccccc2)cc1 ?
Ans: 0.795

Q: Would you kindly repeat that for CN(C)c1ccc(N=Nc2ccccc2C(=O)O)cc1 ?
Ans: -0.36

Q: Would you kindly repeat that for CCCC(CCC)C(=O)N1CCC(n2cc(C(C)O)nn2)CC1 (centres undefined) ?
Ans: -0.47

Q: Would you kindly repeat that for NC(=O)c1cncc(Br)c1 ?
Ans: 0.76

Q: Would you kindly repeat that for NC(N)=[N+]1CCc2ccccc2C1 ?
Ans: -0.075

---

# PROCEDURE DETAILS: viability loss with induced miR-34 in A549 – imaging, A549 dox-inducible miR-34, nuclei and caspase counts, primary screen (AID 1347080); note: test concentration not given here
# MEASUREMENT CONDITIONS: A549 miR-34 inducible, Hoechst nuclei count, 48 h; measured here: relative caspase fold change +Dox/-Dox
Square brackets hold non-standard residues; d marks the D form. Peptide text beside a SMILES is read from it. Nle = CCCC[C@H](N)C(=O)O
Lab note: cut-off is 1. Strictly less in fold change is 1. Exactly 1 or more is -1.

Q: Hello, I'm reviewing records and need to know if fold change of Cc1ccsc1C(=CCCN1CCCC(C(=O)O)C1)c1sccc1C (stereo unspecified) is below 1. Could you check?
Ans: -1

Q: Would you kindly repeat that for CC1CC=CC=CC=CC=CC(O[C@@H]2OC(C)C(O)C(N)C2O)C[C@@H]2O[C@](O)(CC(O)C[C@H]3OC3C=CC(=O)O1)CC(O)C2C(=O)O (stereo partly specified) ?
Ans: -1

Q: Would you kindly repeat that for O=c1[nH]c(=O)c2nc3ccccc3nc2[nH]1 ?
Ans: -1

Q: Would you kindly repeat that for Cc1[nH]c2ccccc2c1CCNC(=O)c1cccs1 ?
Ans: 1

Q: Would you kindly repeat that for COc1ccc2c3c([nH]c2c1)[C@H]1C[C@H]2[C@H](C[C@@H](O)[C@H](OC)[C@H]2C(=O)O)CN1CC3 ?
Ans: 1

Q: Would you kindly repeat that for CCCC[C@@H](C=O)NC(=O)[C@H](CC(C)C)NC(=O)[C@H](CC(C)C)NC(C)=O (Ac-Leu-Leu-[Nle]-aldehyde) ?
Ans: -1

Q: Would you kindly repeat that for Nc1nccc2c1ncn2C1C=C(CO)C(O)C1O (stereo unspecified) ?
Ans: 1

Q: Would you kindly repeat that for CC(C)(C)NCC(O)COc1cccc2c1CC(O)C(O)C2 (stereo unspecified) ?
Ans: -1

Q: Would you kindly repeat that for CC(=CC(=O)OCCCCCCCCC(=O)O)CC1OC[C@H](CC2O[C@H]2C(C)C(C)O)C(O)C1O (stereo partly specified) ?
Ans: 1

Q: Would you kindly repeat that for Cn1nc(NC(=O)Cn2ccc(-c3ccco3)n2)c2ccccc21 ?
Ans: -1

Q: Would you kindly repeat that for CN[C@H](CC(C)C)C(=O)N[C@H]1C(=O)N[C@@H](CC(N)=O)C(=O)N[C@H]2C(=O)N[C@H]3C(=O)N[C@H](C(=O)N[C@H](C(=O)O)c4cc(O)cc(O)c4-c4cc3ccc4O)[C@H](O)c3ccc(c(Cl)c3)Oc3cc2cc(c3O[C@@H]2OC(CO)[C@@H](O)[C@H](O)[C@H]2O[C@H]2C[C@](C)(N)[C@H](O)[C@H](C)O2)Oc2ccc(cc2Cl)[C@H]1O (stereo partly specified) ?
Ans: -1

Q: Would you kindly repeat that for Nc1nc(NC(Cn2ccnc2)c2ccccc2)c2cn[nH]c2n1 (stereo unspecified) ?
Ans: -1

Q: Would you kindly repeat that for CCCCCCCCCCCCCCCC(=O)N[C@@H](COP(=O)(O)O)C(=O)O ?
Ans: -1

Q: Would you kindly repeat that for O=C(O)c1cccc2c(-c3ccccc3)c(-c3ccccc3)[nH]c12 ?
Ans: -1

Q: Would you kindly repeat that for CC1=C(C(=O)O)N2C(=O)[C@@H](NC(=O)C(N)C3=CCC=CC3)[C@H]2SC1 (stereo partly specified) ?
Ans: -1

Q: Would you kindly repeat that for CN1CC(=O)N/C1=N\C(=O)Nc1cccc(Cl)c1 ?
Ans: 1

Values from PubChem BioAssay
